Tested on: OVCAR-4 ovarian
Assay: NCI tumour cell line growth inhibition, 48 h
Where a SMILES comes first, the peptide text is derived from it. The star is where a group is joined. Fmoc = O=C(OCC1c2ccccc2-c2ccccc21)*; OBn = c1ccc(CO*)cc1; tBu = CC(C)(C)*
Please respond with reported TGI for every item in the list.

Which TGI is listed for CC1(c2ccc(Cl)cc2)c2ccccc2C(=O)N1CCCN1C(=O)c2ccccc2C1=O (configuration not stated) ?
> 100 µM

Which TGI is listed for CC(C)OC(=O)c1cc(NC(=S)OC(C)C)ccc1Cl ?
> 56 µM

Which TGI is listed for CCCCCCCCCCCCCCCC[N+](C)(C)CCl ?
8.44 µM

Which TGI is listed for CC(C)NC(=O)OCCN=C1c2ccccc2C(Br)C(Br)c2ccccc21 (configuration not stated) ?
33.6 µM

Which TGI is listed for CC(OC(C)(C)C)C(NC(=O)OCC1c2ccccc2-c2ccccc21)C(=O)NC(Cc1ccccc1)C(=O)OCc1ccccc1 (configuration not stated) (Fmoc-Thr(tBu)-Phe-OBn; configuration not given here) ?
> 100 µM

Give TGI for each of the items listed below.
1. COC(=O)c1c2c(cc3c1CC1(Cc4cc5c(cc4C1)CCCC5)C3)CCCC2
2. CC(C)(C)OC(=O)CC(S(=O)(=O)c1ccccc1)S(=O)(=O)c1ccccc1
3. CNC1CC(n2cc(C)c(=O)[nH]c2=O)OC1CO (configuration not stated)
4. c1ccc2c(c1)n1nnnc1c1nnnn21
5. O=C(Nc1c(Cl)cc([N+](=O)[O-])cc1Cl)C(=O)C(C(=O)c1ccncc1)C1OC(=O)c2ccccc21 (configuration not stated)
6. COc1ccc(C2CC(c3cccc(Nc4ccncc4)c3)=NN2c2ccccc2)cc1 (configuration not stated)
7. COc1ccc2c(c1)CCC1C2CCC2(C)C(NC(=O)CCCCC3CCSS3)CCC12 (configuration not stated)

1: > 100 µM; 2: 4.58 µM; 3: > 100 µM; 4: > 100 µM; 5: > 100 µM; 6: 3.62 µM; 7: > 100 µM

* * *

Please respond with reported GI50 for every item in the list.
System: HCT-116 colon
Assay: NCI tumour cell line growth inhibition, 48 h

A selection of reference data follows.
Which GI50 is listed for OCCN1CCCN(CCCN2c3ccccc3Sc3ccc(C(F)(F)F)cc32)CC1 ?
2100 nM

Which GI50 is listed for O=C([CH-]C(=O)c1ccccc1)c1ccccc1.[CH2-]C.[CH2-]C.[Tl+3] ?
9720 nM

Which GI50 is listed for COc1ccc(C2=NOC3=c4ccccc4=CSC3=C2c2ccccc2)cc1 ?
12800 nM

Which GI50 is listed for COc1cc(C(=O)/C=C/c2c(C)n([O-])c3ccc(Cl)cc3[n+]2=O)cc(OC)c1OC ?
2750 nM

Which GI50 is listed for COc1cc(-c2ccc[nH]2)[nH]c1/C=C1\N=C(C)C(C(=O)NC(C)C)=C1C ?
1520 nM

Give GI50 for each of the items listed below.
1. Nc1c([N+](=O)[O-])ncn1C1OC(CO)C(O)C1O (stereo unspecified)
2. CN1CCC(C(=O)Nc2n[nH]c3nnc(-c4ccccc4)cc23)CC1
3. COc1ccc(C2CC(c3cccc(Nc4ccncc4)c3)=NN2c2ccccc2)cc1 (stereo unspecified)
4. c1ccc(-c2nc3ccccc3[nH]2)c(OCCCCCOc2ccccc2-c2nc3ccccc3[nH]2)c1
5. COc1ccc([C@H]2c3[nH]c4ccccc4c3C[C@H]3C(=O)N(CCCCCCC(=O)NO)CC(=O)N23)cc1
6. O=[N+]([O-])/C(=C/C=C/c1ccccc1)c1ccccc1

1. > 100000 nM
2. > 23600 nM
3. 1680 nM
4. 1640 nM
5. 1070 nM
6. 1880 nM

* * *

Test system: A549 NSCLC
Assay: NCI tumour cell line growth inhibition, 48 h
QUANTITY KIND: TGI (µM)
Numbers only, in µM.

A selection of reference data follows.
Which TGI is listed for CCCCCCC1CCCCN1C(c1ccccc1)C(O)c1ccccc1 (centres undefined) ?
21.4

Which TGI is listed for COc1cc(-c2cc(OC)c(OC)c3ccc(Br)cc23)c2cc(Br)ccc2c1OC ?
45.2

Which TGI is listed for CC(C)(C)OC(=O)CC(S(=O)(=O)c1ccccc1)S(=O)(=O)c1ccccc1 ?
38.9

The record that follows has no TGI shown yet.
Which TGI is listed for CC1CC(C)(C)CC(OCCN2CCCCC2)(c2ccccc2)C1 (centres undefined) ?
24.6

* * *

Test system: COLO 205 colon
Experiment: NCI tumour cell line growth inhibition, 48 h
QUANTITY KIND: TGI (µM)
One number for each entry, in µM.

Give TGI for each of the items listed below.
1. COc1cc([C@H]2c3cc4c(cc3[C@H](NCc3ccc(F)cc3)C3COC(=O)[C@H]32)OCO4)cc(OC)c1O (stereo not given in full)
2. CN1CCN(Cc2ccc(C(=S)Nc3ccccc3)s2)CC1
3. CC(C)(C)c1cc(C(C)(C)C)c2sc(=O)oc2c1O
4. C[N+](C)([O-])C12CC3CC(CC(C3)C1)C2
5. COc1ccc(C2CC(c3cccc(Nc4ccncc4)c3)=NN2c2ccccc2)cc1 (stereo not given)
6. CCN(CCCl)c1cc(CN(C)C)cc(NC(=O)c2ccc(C(=O)Nc3cccc(N(CCCl)NN)c3)cc2)c1
7. Clc1cc(Cl)cc(Nc2ccc3c(OCCCN4CCOCC4)cccc3n2)c1

31.5
45.9
33.7
70.9
6.14
0.199
3.56

Give TGI for each of the items listed below.
1. O=C(N[C@H]1CC2(C=C(I)C(=O)C(I)=C2)OC1=O)OCc1ccccc1
2. O=C(c1ccccc1)C1C(c2ccccc2[N+](=O)[O-])N1C1CCCCC1 (stereo not given)
3. COc1cc(-c2ccc[nH]2)[nH]c1/C=C1\N=C(C)C(C(=O)NC(C)C)=C1C

1: 28.1; 2: 20.4; 3: 14.1

Give TGI for each of the items listed below.
1. COc1cc2c(cc1OC)C(Sc1ccc(Cl)cc1)c1c(nc(N)c(C#N)c1N)O2 (stereo not given)
2. COc1cc(C(=O)/C=C/c2c(C)n([O-])c3ccc(Cl)cc3[n+]2=O)cc(OC)c1OC
3. COc1cc(OC)c(OC)cc1/C=C\c1ccnc2ccccc12
4. CC1(c2ccc(Cl)cc2)c2ccccc2C(=O)N1CCCN1C(=O)c2ccccc2C1=O (stereo not given)
5. NC(=O)N1N=C2c3ccccc3OC[C@H]2[C@@H]1c1ccccc1

1. 2.95
2. 4.54
3. 3.86
4. 36.2
5. 51.5

Which TGI is listed for Cc1cc(=O)[nH]c2c1C(=O)c1c(C)cc(=O)n(C)c1C2=O ?
0.037

* * *

Tested on: MDA-MB-231 breast
Assay: NCI tumour cell line growth inhibition, 48 h
Please respond with reported TGI for every item in the list.

A selection of reference data follows.
Which TGI is listed for CSC1=C(C)C(/C=N/Nc2ccc([N+](=O)[O-])cc2)=C(C)N(c2ccccc2)S1(=O)=O ?
> 100 µM

Which TGI is listed for Cc1cc(=O)[nH]c2c1C(=O)c1c(C)cc(=O)n(C)c1C2=O ?
0.789 µM

Which TGI is listed for C[C@]12CC[C@H]3[C@@H](CCC4=C/C(=N/OCCN5CCCCC5)CC[C@@]43C)[C@@H]1CC[C@@H]2O ?
50.6 µM

Give TGI for each of the items listed below.
1. O=C(CCCCCCCCC(=O)N1C(=O)CC(=O)N(c2ccc(Cl)cc2)C1=S)N1C(=O)CC(=O)N(c2ccc(Cl)cc2)C1=S
2. O=c1ccc(=O)c2c1c1[nH]c3ccccc3c1c1c(=O)c3ccccc3c(=O)c21
3. CC(=O)OCCc1cc2ccccc2oc1=O
4. COc1ccc(/C=C2\N=C3N(Cc4ccccc4)C=C(N)N3C2=O)cc1
5. O=C([CH-]C(=O)c1ccccc1)c1ccccc1.[CH2-]C.[CH2-]C.[Tl+3]

> 100 µM
> 10 µM
> 100 µM
> 100 µM
> 100 µM

Give TGI for each of the items listed below.
1. COC(=O)c1sc(=S)c2sc(C(=O)OC)c(C(=O)OC)c2c1C(=O)OC
2. CCOC(=O)CSc1nc(-c2ccc(Cl)cc2)c(C#N)c(=O)[nH]1
3. CC(=O)O[C@H]1C(=O)[C@@]2(C)C([C@H](OC(=O)c3ccccc3)[C@]3(O)C[C@H](OC(=O)[C@H](O)[C@@H](NC(=O)c4ccc(Cl)cc4)c4ccccc4)C(C)=C1C3(C)C)C1(OC(C)=O)CO[C@@H]1C[C@@H]2O (some centres not stated)
4. COc1cc2ccc(C(C)NCC#N)cc2cc1OC (configuration not stated)

1. > 100 µM
2. > 100 µM
3. 25 µM
4. > 100 µM

* * *

Test system: HS 578T breast
Experiment: NCI tumour cell line growth inhibition, 48 h
Please respond with reported TGI for every item in the list.
Give bare numbers, in µM.

Which TGI is listed for c1ccc2c(c1)ccc1cc3cc(NCCCCNc4ccc5nc6c(ccc7ccccc76)cc5c4)ccc3nc12 ?
4.25

Which TGI is listed for COC1=C(OC)C(=O)C(Cc2c(-c3ccccc3)nc3sc(Cl)cn23)=C(C)C1=O ?
44.3

Which TGI is listed for COc1cc(C(=O)/C=C/c2c(C)n([O-])c3ccc(Cl)cc3[n+]2=O)cc(OC)c1OC ?
8.97

The record that follows has no TGI shown yet.
Which TGI is listed for Clc1ccc(C2=CC(c3ccccc3)N3C(=N[C@H]4CCCC[C@@H]43)N2)cc1 (some centres undefined) ?
23.6
